PROTOCOL_TEXT: TOX21_p53_BLA_p3_viability: Viability Assessment in the Tox21 HCT-116 p53 Agonism Beta-lactamase Assay, Phase 3 (AID 2283593);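 also: cells exposed to compound for 16 h before reading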
Source text: TOX21_p53_BLA_p3 is a cell-based, single-readout assay that uses HCT116, a human intestinal cell line, […] in a 1536-well plate.TOX21_p53_BLA_p3_viability is an assay readout measuring cellular ATP content and detected with CellTiter-Glo Luciferase-coupled ATP quantitation.TOX21_p53_BLA_p3_viability used a type of viability reporter where loss-of-signal activity can be used to understand changes in the cell viability. […]
Results filed as inconclusive are left out. Activity calls are given as the source filed them. The calls were made as follows: active = hit-call score of the fitted dose curve at least 0.9, where 1 is the maximum; inconclusive = response in the unintended direction; inactive = score below 0.9.
Output constraint: value belongs to YES (active), NO (inactive)

O=C(CCCCCCCCc1cccnc1)N1CCC(C=C(c2ccccc2)c2ccccc2)CC1
YES
COc1ccc2sc(C(=O)Nc3nnn[nH]3)c(OC(C)C)c2c1
YES
CC(=O)OCCC(C)C
NO
COCCOc1cc2cc(C(=O)NC3CCN(C(C)C)CC3)n(CC(=O)Nc3ccc(Cl)cn3)c2cn1
NO

Problem: Field: outcome | Entry: CCn1nc(Cc2ccccc2)cc1C1CCN(C[C@H]2C[C@H](N(C)[C@@H](C(=O)O)C(C)C)C[C@@H]2c2cccc(F)c2)CC1
Result: NO

Problem: Field: outcome | Entry: CC[C@H]1CC[C@H](NCc2cc3c(cc2OC)[C@H]2C[C@H]2C(=O)N3C)[C@H](c2ccccc2)N1
Result: NO

Problem: Field: outcome | Entry: CC(C)=CCC/C(C)=C\CO
Result: NO

Problem: Field: outcome | Entry: CC(C)c1cccc(C(C)C)c1N1C(=O)c2ccc(O)cc2C1=O
Result: YES

Problem: Field: outcome | Entry: COC(=O)c1c(Cl)c(Cl)c(C(=O)OC)c(Cl)c1Cl
Result: NO

Problem: Field: outcome | Entry: CCCN(C1CCN(C(=O)C2CCNCC2)CC1)[C@@H]1CCc2ccc(OC)cc2C1
Result: NO

---

PROTOCOL_TEXT: ATG_NRF2_ARE_CIS: Attagene CIS-FACTORIAL HepG2 Assay for human Nuclear Factor Erythroid 2 Related Factor 2 (NFR2) response to Antioxidant Response Elements (ARE) (AID 2282992);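 as to AC50: reporter mRNA level measured by RT-PCR and capillary electrophoresis fluorescence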
APPLIED_CONDITIONS: HepG2 Attagene ARE/NRF2 reporter, transcription factor activity; actives raise or lower the signal
Procedure: ATG_CIS is a cell-based, multiplexed-readout assay that uses HepG2, a human liver cell line, with measurements taken at 24 hours after chemical dosing in a 24-well plate.ATG_NRF2_ARE_CIS is one of 52 assay component(s) measured or calculated from the ATG_CIS assay. […] This assay endpoint, ATG_NRF2_ARE_CIS, was analyzed with bidirectional fitting relative to DMSO as the negative control and baseline of activity. […]
Active and inactive are the calls of the source. Rule for the calls: active = hit-call score of the fitted dose curve at least 0.9, where 1 is the maximum; inactive = score below 0.9.
QUANTITY_MEASURED: AC50

CCOCCO
inactive
Cn1cnc([N+](=O)[O-])c1Sc1ncnc2nc[nH]c12
29.5 µM (active)
Cc1[nH]cnc1C[C@H]1CCc2c(C)c3ccccc3n2C1=O
inactive
Cn1c(=O)cc(Oc2ccc(F)cc2F)c2cnc(NCC(C)(C)O)nc21
inactive
CCC(C)(C)C(=O)O[C@H]1C[C@@H](C)C=C2C=C[C@H](C)[C@H](CC[C@@H]3C[C@@H](O)CC(=O)O3)[C@H]21
inactive
CCCCCCCCCCCCCCCO
inactive
O=C1OC(=O)C2C3C=CC(C3)C12 (stereo not drawn)
inactive
CCNc1ccccc1
inactive
CC(C)CCCCCCOC(=O)c1ccc(C(=O)OCCCCCCC(C)C)c(C(=O)OCCCCCCC(C)C)c1
inactive
CN(C)c1ccc(Cc2ccc(N(C)C)cc2)cc1
78.2 µM (active)

Problem: Name the reported AC50 value associated with the molecule CCOc1cccc(-n2cc(C(=O)N3CCN(c4cc(C(=O)O)c5ccccc5c4)CC3)nc2-c2ccc(C)cc2)c1
Result: 8.42 µM (active)

Problem: Name the reported AC50 value associated with the molecule CCCCCCCCO
Result: inactive

Problem: Name the reported AC50 value associated with the molecule O=C(O)c1cccc(Oc2ccccc2)c1
Result: inactive
